tgt: EF2K (Homo sapiens, UniProt O00418)
assay protocol: Kinase profiling (radiometric filter-binding)
Format: biochemical
condition notes: 1 µM inhibitor, read-out: Residual activity, %
Square brackets hold non-standard residues; d marks the D form. Peptide text beside a SMILES is read from it. * marks the point of attachment. X3 = O=C(CCCCCNCc1nc2c(sc3cc(Br)cnc32)c(=O)[nH]1)*
quantity kind: remaining activity at 1 µM (%)
Use % as the unit, but write only the number.

See these solved cases before continuing.
compound: N=C(N)NCCC[C@@H](NC(=O)CNC(=O)[C@@H](CCCNC(=N)N)NC(=O)[C@@H](CCCNC(=N)N)NC(=O)CCCCCCCNCc1nc2c(sc3ccc(Br)cc32)c(=O)[nH]1)C(=O)N[C@H](CCCCN)C(N)=O
measurement: 98

compound: N=C(N)NCCC[C@@H](NC(=O)CNC(=O)[C@@H](CCCNC(=N)N)NC(=O)[C@@H](CCCNC(=N)N)NC(=O)CCCCCCCNCc1nc2c(sc3cc(Br)cnc32)c(=O)[nH]1)C(=O)N[C@H](CCCCN)C(N)=O
measurement: 104

Noted remaining activity at 1 µM for N=C(N)NCCC[C@@H](NC(=O)CCCCCNC(=O)Cn1cnc2c(I)c(I)c(I)c(I)c21)C(=O)N[C@H](CCCNC(=N)N)C(=O)N[C@H](CCCNC(=N)N)C(=O)N[C@H](CCCNC(=N)N)C(=O)N[C@H](CCCNC(=N)N)C(=O)N[C@H](CCCNC(=N)N)C(=O)N[C@H](CCCCN)C(N)=O , tested on EF2K (Homo sapiens, UniProt O00418): 103

Noted remaining activity at 1 µM for N=C(N)NCCC[C@@H](NC(=O)CNC(=O)[C@@H](CCCNC(=N)N)NC(=O)[C@@H](CCCNC(=N)N)NC(=O)Cn1cc(CNCc2nc3c(sc4ccc(Br)cc43)c(=O)[nH]2)nn1)C(=O)N[C@H](CCCCN)C(N)=O , tested on EF2K (Homo sapiens, UniProt O00418): 102

Noted remaining activity at 1 µM for N=C(N)NCCC[C@@H](NC(=O)CCCCCNCc1nc2c(sc3cc(Br)cnc32)c(=O)[nH]1)C(=O)N[C@H](CCCNC(=N)N)C(=O)N[C@H](CCCNC(=N)N)C(=O)N[C@H](CCCNC(=N)N)C(=O)N[C@H](CCCNC(=N)N)C(=O)N[C@H](CCCNC(=N)N)C(=O)N[C@H](CCCCN)C(N)=O [ARC-3126, BPTP-Ahx-(D-Arg)6-D-Lys-NH2] (X3-[dR][dR][dR][dR][dR][dR][dK]-NH2) , tested on EF2K (Homo sapiens, UniProt O00418): 85

====

tgt: VEG-FR (Homo sapiens, UniProt P17948)
Sequence (P17948 784-1338 limits assumed): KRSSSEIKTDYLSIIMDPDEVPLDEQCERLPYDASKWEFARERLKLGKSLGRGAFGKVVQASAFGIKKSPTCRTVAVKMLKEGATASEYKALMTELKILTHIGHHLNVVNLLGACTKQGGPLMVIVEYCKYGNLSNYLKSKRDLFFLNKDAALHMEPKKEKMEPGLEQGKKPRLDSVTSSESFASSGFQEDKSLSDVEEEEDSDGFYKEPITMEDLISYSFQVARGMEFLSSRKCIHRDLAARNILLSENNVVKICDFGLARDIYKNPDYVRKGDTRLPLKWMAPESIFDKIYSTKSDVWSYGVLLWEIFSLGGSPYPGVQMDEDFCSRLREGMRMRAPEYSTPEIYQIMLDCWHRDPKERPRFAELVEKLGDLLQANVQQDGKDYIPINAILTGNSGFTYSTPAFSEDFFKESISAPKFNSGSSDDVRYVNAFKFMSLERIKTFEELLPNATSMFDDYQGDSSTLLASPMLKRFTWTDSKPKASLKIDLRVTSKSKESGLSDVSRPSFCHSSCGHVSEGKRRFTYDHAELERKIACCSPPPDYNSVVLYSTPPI
assay protocol: Kinase profiling (radiometric filter-binding)
Format: biochemical
condition notes: 1 µM inhibitor, read-out: Residual activity, %
Experimental: Kinase selectivity profiling was performed using the commercial service provided by the MRC PPU International Centre for Kinase Profiling (Dundee, UK) using a radiometric filter-binding assay. Kinases used for analysis were of human origin. The ATP concentration applied for inhibition measurements was at or below the ATP KM value of the particular PK. […] Residual activities were expressed as the percentage of retained activity compared to the control without inhibitor.
Square brackets hold non-standard residues; d marks the D form. Peptide text beside a SMILES is read from it. * marks the point of attachment. X3 = O=C(CCCCCNCc1nc2c(sc3cc(Br)cnc32)c(=O)[nH]1)*
quantity kind: remaining activity at 1 µM (%)
Use % as the unit, but write only the number.

compound: N=C(N)NCCC[C@@H](NC(=O)CCCCCNC(=O)Cn1cnc2c(I)c(I)c(I)c(I)c21)C(=O)N[C@H](CCCNC(=N)N)C(=O)N[C@H](CCCNC(=N)N)C(=O)N[C@H](CCCNC(=N)N)C(=O)N[C@H](CCCNC(=N)N)C(=O)N[C@H](CCCNC(=N)N)C(=O)N[C@H](CCCCN)C(N)=O
tgt: VEG-FR (Homo sapiens, UniProt P17948)
output unit: %
measurement: 95

Entry N=C(N)NCCC[C@@H](NC(=O)CNC(=O)[C@@H](CCCNC(=N)N)NC(=O)[C@@H](CCCNC(=N)N)NC(=O)CCCCCCCNCc1nc2c(sc3cc(Br)cnc32)c(=O)[nH]1)C(=O)N[C@H](CCCCN)C(N)=O ; remaining activity at 1 µM = 110

Entry N=C(N)NCCC[C@@H](NC(=O)CNC(=O)[C@@H](CCCNC(=N)N)NC(=O)[C@@H](CCCNC(=N)N)NC(=O)CCCCCCCNCc1nc2c(sc3ccc(Br)cc32)c(=O)[nH]1)C(=O)N[C@H](CCCCN)C(N)=O ; remaining activity at 1 µM = 96

Entry N=C(N)NCCC[C@@H](NC(=O)CCCCCNCc1nc2c(sc3cc(Br)cnc32)c(=O)[nH]1)C(=O)N[C@H](CCCNC(=N)N)C(=O)N[C@H](CCCNC(=N)N)C(=O)N[C@H](CCCNC(=N)N)C(=O)N[C@H](CCCNC(=N)N)C(=O)N[C@H](CCCNC(=N)N)C(=O)N[C@H](CCCCN)C(N)=O [ARC-3126, BPTP-Ahx-(D-Arg)6-D-Lys-NH2] (X3-[dR][dR][dR][dR][dR][dR][dK]-NH2) ; remaining activity at 1 µM = 85

Entry N=C(N)NCCC[C@@H](NC(=O)CNC(=O)[C@@H](CCCNC(=N)N)NC(=O)[C@@H](CCCNC(=N)N)NC(=O)Cn1cc(CNCc2nc3c(sc4ccc(Br)cc43)c(=O)[nH]2)nn1)C(=O)N[C@H](CCCCN)C(N)=O ; remaining activity at 1 µM = 90

====

tgt: TLK1 (Homo sapiens, UniProt Q9UKI8)
Sequence (Q9UKI8 1-766): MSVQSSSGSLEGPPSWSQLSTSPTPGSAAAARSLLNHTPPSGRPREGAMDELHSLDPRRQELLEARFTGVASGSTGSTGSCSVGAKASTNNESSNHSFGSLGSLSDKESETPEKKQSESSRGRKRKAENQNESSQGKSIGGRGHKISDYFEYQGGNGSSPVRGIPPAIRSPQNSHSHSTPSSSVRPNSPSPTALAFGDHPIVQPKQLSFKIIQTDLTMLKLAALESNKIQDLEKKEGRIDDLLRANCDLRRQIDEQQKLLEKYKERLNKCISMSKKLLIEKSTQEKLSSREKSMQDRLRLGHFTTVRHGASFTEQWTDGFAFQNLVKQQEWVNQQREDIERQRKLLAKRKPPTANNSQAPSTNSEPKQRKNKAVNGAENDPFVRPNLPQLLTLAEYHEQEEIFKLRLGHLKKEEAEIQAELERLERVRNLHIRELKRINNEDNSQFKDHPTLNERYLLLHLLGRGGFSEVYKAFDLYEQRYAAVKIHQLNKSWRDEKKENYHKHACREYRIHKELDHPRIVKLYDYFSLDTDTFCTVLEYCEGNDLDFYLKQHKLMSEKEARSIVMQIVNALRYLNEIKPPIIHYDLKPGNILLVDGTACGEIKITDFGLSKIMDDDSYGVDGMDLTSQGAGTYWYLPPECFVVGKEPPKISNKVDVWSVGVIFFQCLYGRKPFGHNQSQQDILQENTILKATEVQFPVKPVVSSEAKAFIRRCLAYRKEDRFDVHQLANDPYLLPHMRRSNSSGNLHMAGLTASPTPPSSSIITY
assay protocol: Kinase profiling (radiometric filter-binding)
Type: biochemical
condition notes: TLK1, 1 µM inhibitor; read-out: Residual activity, %
Examples of compounds with documented remaining activity at 1 µM follow.
Use % as the unit, but write only the number.

cpd smiles: N=C(N)NCCC[C@@H](NC(=O)CNC(=O)[C@@H](CCCNC(=N)N)NC(=O)[C@@H](CCCNC(=N)N)NC(=O)CCCCCCCNCc1nc2c(sc3ccc(Br)cc32)c(=O)[nH]1)C(=O)N[C@H](CCCCN)C(N)=O
output unit: %
remaining activity at 1 µM: 122
//
cpd smiles: N=C(N)NCCC[C@@H](NC(=O)CCCCCNC(=O)Cn1cnc2c(I)c(I)c(I)c(I)c21)C(=O)N[C@H](CCCNC(=N)N)C(=O)N[C@H](CCCNC(=N)N)C(=O)N[C@H](CCCNC(=N)N)C(=O)N[C@H](CCCNC(=N)N)C(=O)N[C@H](CCCNC(=N)N)C(=O)N[C@H](CCCCN)C(N)=O
output unit: %
remaining activity at 1 µM: 78

Pending compound:
Entry N=C(N)NCCC[C@@H](NC(=O)CNC(=O)[C@@H](CCCNC(=N)N)NC(=O)[C@@H](CCCNC(=N)N)NC(=O)CCCCCCCNCc1nc2c(sc3cc(Br)cnc32)c(=O)[nH]1)C(=O)N[C@H](CCCCN)C(N)=O ; remaining activity at 1 µM = 118

Origin of values: paper PMC8307404
